- assayTarget: Recombinant human renin (Homo sapiens)
- Construct: isolate the active form (residues 67-406); made in house; host or cells: FreeStyle 293-F cells (transient expression of pcDNA3.1(+)/hREN)
- Sequence (P00797 67-406): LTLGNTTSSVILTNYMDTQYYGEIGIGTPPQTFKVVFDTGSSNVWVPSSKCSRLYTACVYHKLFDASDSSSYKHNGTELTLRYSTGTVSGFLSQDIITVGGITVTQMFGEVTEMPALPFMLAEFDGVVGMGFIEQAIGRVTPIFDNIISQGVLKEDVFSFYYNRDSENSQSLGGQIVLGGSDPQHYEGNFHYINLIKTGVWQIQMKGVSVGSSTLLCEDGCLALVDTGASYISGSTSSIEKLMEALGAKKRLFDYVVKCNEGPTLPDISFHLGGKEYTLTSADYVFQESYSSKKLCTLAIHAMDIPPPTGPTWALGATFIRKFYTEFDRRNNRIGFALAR
- assayMethodText: In vitro enzymatic activity assay of renin inhibitors (fluorogenic peptide substrate)
- Assay type: biochemical
- assaySetup: read-out: IC50 of Exemplified Compounds Against Renin
endpointLabel: IC50

>>> endpointresult("COCCCn1c([C@@H]2CCCN(C(=O)[C@@H]3CN(S(=O)(=O)c4c(C)cccc4Cl)C[C@H]3N)C2)nc2ccccc21 [Compound 359]")
"100 to 1000 nM"
>>> endpointresult("COCCCn1c([C@@H]2CCCN(C(=O)C[C@H](N)CNC(=O)c3cccc(F)c3)C2)nc2ccccc21 [Compound 318]")
"100 to 1000 nM"
>>> endpointresult("CC(=O)NCCn1c([C@@H]2CCCN(C(=O)C[C@H](N)Cc3ccc(-c4ccc5c(c4)OCCN5C)cc3)C2)nc2c(C)cccc21 [Compound 475]")
"100 to 1000 nM"
>>> endpointresult("COCCCn1c([C@@H]2CCCN(C(=O)C[C@H](N)CNC(=O)Nc3ccc(OC)cc3)C2)nc2ccccc21 [Compound 253]")
"< 100 nM"
>>> endpointresult("COCCCn1c([C@@H]2CCCN(C(=O)C[C@H](N)Cc3ccc(-n4c(=O)[nH]c5cc(C)c(C)cc54)cc3)C2)nc2ccccc21 [Compound 219]")
"< 100 nM"
>>> endpointresult("COCCCn1c([C@@H]2CCCN(C(=O)C[C@H](N)Cc3ccc(-c4ccc(C(=O)NC(CO)CO)cc4)cc3)C2)nc2ccccc21 [Compound 184]")
"< 100 nM"

---

IC50 by entry:
- assayTarget: Recombinant human renin (Homo sapiens, UniProt P00797)
- Construct: isolate the active form (residues 67-406); made in house; host or cells: FreeStyle 293-F cells (transient expression of pcDNA3.1(+)/hREN)
- Sequence (P00797 67-406): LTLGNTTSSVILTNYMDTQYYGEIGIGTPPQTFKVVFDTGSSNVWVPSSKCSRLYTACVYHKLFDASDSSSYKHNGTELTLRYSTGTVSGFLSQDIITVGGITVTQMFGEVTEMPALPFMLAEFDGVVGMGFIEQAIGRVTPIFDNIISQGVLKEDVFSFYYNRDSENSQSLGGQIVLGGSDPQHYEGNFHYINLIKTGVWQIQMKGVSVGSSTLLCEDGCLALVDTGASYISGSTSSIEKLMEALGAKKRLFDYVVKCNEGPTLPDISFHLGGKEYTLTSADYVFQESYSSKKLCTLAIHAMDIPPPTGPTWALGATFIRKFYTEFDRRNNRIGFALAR
- assayMethodText: In vitro enzymatic activity assay of renin inhibitors (fluorogenic peptide substrate)
- Assay type: biochemical
- assaySetup: read-out: IC50 of Exemplified Compounds Against Renin
endpointLabel: IC50

>>> endpointresult("CC(=O)NCCn1c([C@@H]2CCCN(C(=O)C[C@H](N)Cc3ccc(-c4ccc5c(c4)NC(=O)C5)cc3)C2)nc2ccccc21")
"100 to 1000 nM"
>>> endpointresult("C[C@@H](N)C(=O)N1CCCC(c2nc3ccccc3[nH]2)C1 (stereo partly drawn)")
"> 1000 nM"
>>> endpointresult("N[C@H](CCc1ccccc1)CC(=O)N1CCCC(c2nc3ccccc3[nH]2)C1 (stereo partly drawn)")
"> 1000 nM"
>>> endpointresult("COCCCn1c([C@@H]2CCCN(C(=O)C[C@H](N)Cc3ccc(-c4cncnc4)cc3)C2)nc2ccccc21")
"< 100 nM"
>>> endpointresult("COCCCn1c([C@@H]2CCCN(C(=O)C[C@H](N)Cc3ccc(-c4ccc5oc(N)nc5c4)cc3)C2)nc2c(F)cccc21")
"< 100 nM"
>>> endpointresult("COCCCn1c([C@@H]2CCCN(C(=O)C[C@H](N)c3cccc(C#N)c3)C2)nc2ccccc21")
"> 1000 nM"
>>> endpointresult("COCCCn1c([C@@]2(O)CCCN(C(=O)C[C@H](N)Cc3ccc(Cl)cc3)C2)nc2ccccc21")
"> 1000 nM"
>>> endpointresult("COCCCn1c([C@@H]2CCCN(C(=O)C[C@H](N)Cc3ccc4ccccc4c3)C2)nc2cc(F)ccc21")
"100 to 1000 nM"
>>> endpointresult("COCCCn1c([C@@H]2CCCN(C(=O)[C@@H]3CN(C(=O)C4CCCCC4)C[C@H]3N)C2)nc2ccccc21")
"> 1000 nM"
>>> endpointresult("COCCCn1c([C@@H]2CCCN(C(=O)C[C@H](N)CNS(=O)(=O)c3ccc(OC)cc3)C2)nc2ccccc21")
"100 to 1000 nM"
>>> endpointresult("COCCCn1c([C@@H]2CCCN(C(=O)C[C@H](N)Cc3ccc(-c4ccccc4F)cc3)C2)nc2ccccc21")
"< 100 nM"
>>> endpointresult("COCCCn1c([C@@H]2CCCN(C(=O)C[C@H](N)Cc3ccc(-c4ccc(C(=O)NCCO)cc4Cl)cc3)C2)nc2ccccc21")
"< 100 nM"
>>> endpointresult("CC(=O)NCCn1c([C@@H]2CCCN(C(=O)C[C@H](N)Cc3ccc(-c4ccc5c(c4)OCCO5)cc3)C2)nc2c(C)cccc21")
"100 to 1000 nM"
>>> endpointresult("COCCCn1c([C@@H]2CCCN(C(=O)C[C@H](N)Cc3ccc(-c4ccc(S(C)(=O)=O)cc4)cc3)C2)nc2ccccc21")
"< 100 nM"
>>> endpointresult("COCCCn1c([C@@H]2CCCN(C(=O)[C@@H]3CN(C(=O)c4cc5ccccc5o4)C[C@H]3N)C2)nc2ccccc21")
"> 1000 nM"
>>> endpointresult("COCCCn1c([C@@H]2CCCN(C(=O)C[C@H](N)Cc3ccc(N4CCC(C(=O)OC)CC4)cc3)C2)nc2ccccc21")
"100 to 1000 nM"
>>> endpointresult("COCCCn1c([C@@H]2CCCN(C(=O)C[C@H](N)Cc3ccc(-c4cnccc4OC)cc3)C2)nc2ccccc21")
"< 100 nM"
>>> endpointresult("CC(=O)NCCn1c([C@@H]2CCCN(C(=O)C[C@H](N)Cc3ccc(-c4ccc(O)nc4)cc3)C2)nc2c(C)cccc21")
"100 to 1000 nM"
>>> endpointresult("COCCCn1c([C@@H]2CCCN(C(=O)C[C@H](N)Cc3ccc(-c4ccccc4)cc3)C2)nc2c(C)ccnc21")
"< 100 nM"
>>> endpointresult("COCCCn1c([C@@H]2CCCN(C(=O)C[C@H](N)Cc3ccc(-c4ccc(C(=O)N[C@@H](C)CO)cc4)cc3)C2)nc2ccccc21")
"< 100 nM"
>>> endpointresult("COCCCn1c([C@@H]2CCCN(C(=O)C[C@H](N)CNC(=O)C3CCCCC3)C2)nc2ccccc21")
"> 1000 nM"
>>> endpointresult("COCCCn1c([C@@H]2CCCN(C(=O)C[C@H](N)c3cccc(Cl)c3)C2)nc2ccccc21")
"> 1000 nM"
>>> endpointresult("CC(=O)NCCn1c([C@@H]2CCCN(C(=O)C[C@H](N)Cc3ccc(-c4ccc(O)nc4)cc3)C2)nc2ccccc21")
"100 to 1000 nM"
>>> endpointresult("COCCCNC(=O)c1ccc(-c2ccc(C[C@@H](N)CC(=O)N3CCC[C@@H](c4nc5ccccc5n4CCCOC)C3)cc2)cc1")
"< 100 nM"
>>> endpointresult("COCCCn1c([C@@H]2CCCN(C(=O)[C@@H]3CN(C(=O)N4CCCC4)C[C@H]3N)C2)nc2ccccc21")
"> 1000 nM"
>>> endpointresult("N[C@@H](CC(=O)N1CCCC(c2nc3ccccc3[nH]2)C1)c1ccc([N+](=O)[O-])cc1 (stereo partly drawn)")
"> 1000 nM"
>>> endpointresult("COCCCn1c([C@@H]2CCCN(C(=O)C[C@H](N)Cc3ccc(-c4ccc(O)nc4)cc3)C2)nc2c(F)cccc21")
"< 100 nM"
